Where do these numbers come from? They come from patent US11730720B2.

Each record here notes measured pKi.
studySystem: recombinant human ALK5 (TGF-βR1) protein (Homo sapiens)
testName: Biochemical ALK5 (TGF-βR1) assay to measure pKi (LANCE Ultra ULight kinase assay)
appliedConditions: apparent pKi, converted from pIC50 using the Cheng-Prusoff equation
pKi: −log10 of the molar value.
valueKind: pKi

1) CC(C)N1CC=C(c2cnc3ccc(-c4c[nH]nc4-c4cc(Cl)c(F)cc4F)nc3c2)C1 [Compound 6-44] | 9.50 to 10.40
2) O=C(O)[C@H]1CN(c2cnc3ccc(-c4nc[nH]c4-c4cc(Cl)c(F)cc4F)nc3c2)CCN1 [Compound 7-3] | 8.50 to 9.40
3) Fc1cc(F)c(-c2n[nH]cc2-c2ccc3ncc(N4CC5CNC5C4)cc3n2)cc1Cl (centres unmarked) [Compound 6-33] | 8.50 to 9.40
4) Fc1ccccc1-c1[nH]nnc1-c1ccc2ncc(-c3c[nH]nc3C(F)(F)F)cc2n1 [Compound 12-2] | 7.50 to 8.40
5) CC(C)NCCN1CCN(c2cnc3ccc(-c4c[nH]nc4-c4cc(Cl)ccc4F)nc3c2)CC1 [Compound 1-76] | ≥ 10.50
6) Fc1cc(F)c(-c2n[nH]cc2-c2ccc3ncc(-c4cnc5n4CCN5)cc3n2)cc1Cl [Compound 6-54] | 9.50 to 10.40
7) Fc1ccc(Cl)cc1-c1[nH]cnc1-c1ccc2ncc(-c3cnn(C4CCCNC4)c3)cc2n1 (centres unmarked) [Compound 2-18] | 9.50 to 10.40
8) COCc1cccc(-c2n[nH]cc2-c2ccc3ncc(N4CCC(N)C4)cc3n2)c1 (centres unmarked) [Compound 14-6] | 8.50 to 9.40

====

Each record here notes measured pKi.
studySystem: recombinant human ALK5 (TGF-βR1) protein (Homo sapiens)
Sequence (P36897 34-503): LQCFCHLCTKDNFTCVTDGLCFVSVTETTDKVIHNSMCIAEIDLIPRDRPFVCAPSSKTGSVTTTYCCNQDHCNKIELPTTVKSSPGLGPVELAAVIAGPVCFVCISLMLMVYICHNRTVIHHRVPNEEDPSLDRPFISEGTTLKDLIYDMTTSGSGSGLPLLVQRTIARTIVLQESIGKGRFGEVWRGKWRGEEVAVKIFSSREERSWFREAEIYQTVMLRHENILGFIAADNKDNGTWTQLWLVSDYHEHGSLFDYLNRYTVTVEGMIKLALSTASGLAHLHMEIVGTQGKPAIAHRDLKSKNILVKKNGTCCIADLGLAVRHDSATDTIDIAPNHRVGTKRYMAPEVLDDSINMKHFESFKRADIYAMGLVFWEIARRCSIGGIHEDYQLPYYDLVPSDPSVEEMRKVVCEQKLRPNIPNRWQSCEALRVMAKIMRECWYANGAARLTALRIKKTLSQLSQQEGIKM
testName: Biochemical ALK5 (TGF-βR1) assay to measure pKi (LANCE Ultra ULight kinase assay)
appliedConditions: apparent pKi, converted from pIC50 using the Cheng-Prusoff equation
pKi: −log10 of the molar value.
valueKind: pKi

1) CN(C)C1CN(c2cnc3ccc(-c4c[nH]nc4-c4cc(Cl)ccc4F)nc3c2)C1 | 9.50 to 10.40
2) CC(C)N1CCN(c2cnc3ccc(-c4c[nH]nc4-c4ccccc4F)nc3c2)CC1 | 7.50 to 8.40
3) Fc1ccc(-c2n[nH]cc2-c2ccc3ncc(C4=CCNC4)cc3n2)cc1F | 8.50 to 9.40
4) Fc1cc(F)c(-c2n[nH]cc2-c2ccc3ncc(N4CC(N5CCCCC5)C4)cc3n2)cc1Cl | 9.50 to 10.40
5) CCOC(=O)CNCCn1cc(-c2cnc3ccc(-c4c[nH]nc4-c4cc(Cl)ccc4F)nc3c2)cn1 | ≥ 10.50
6) CC(C)NC(=O)[C@H]1CN(c2cnc3ccc(-c4c[nH]nc4-c4cc(Cl)ccc4F)nc3c2)CCN1 | 8.50 to 9.40
7) Fc1ccc(Cl)cc1-c1n[nH]cc1-c1ccc2ncc(-c3cnc4n3CCCN4)cc2n1 | 9.50 to 10.40
8) CN(CC1CNC1)c1cnc2ccc(-c3nc[nH]c3-c3cc(Cl)c(F)cc3F)nc2c1 | 9.50 to 10.40
